The measured values listed here are drawn from a melting point compilation (Tetko et al.; mined from patent text by program, amines drawn as free bases though some values may be those of a salt).

The entries below are paired with their reported melting point.

# count of solved cases: 4
[[record]]
compound = "CCNC(=O)c1c([Si](C)(C)C)ccc(C(=O)OC)c1Cl"
assayvalue = "103 to 104 °C"

[[record]]
compound = "CN(Cc1ccccc1)c1nc(=O)c2cccnc2s1"
assayvalue = "112 to 113 °C"

[[record]]
compound = "COC1(c2cccc(O)c2)OOC12C1CC3CC(C1)CC2C3 (stereo unspecified)"
assayvalue = "135 °C"

[[record]]
compound = "Nc1cccc(-c2ccc(CCN3CCN(CCc4ccccc4)CC3)cc2)n1"
assayvalue = "111 to 113 °C"


Consider now this further compound.
Identify measured melting point corresponding to "Cc1ccc(CN(C(=S)Nc2ccccc2)C2CCCC2)cc1" 109 to 111 °C

====

The entries below are paired with their reported melting point.

Identify measured melting point corresponding to "CSc1nc(P(=O)(c2ccccc2)c2ccccc2)cc(P(=O)(c2ccccc2)c2ccccc2)n1" 221 to 222 °C

Identify measured melting point corresponding to "Cc1onc(-c2ccccc2)c1-c1cc(F)c(S(C)(=O)=O)c(F)c1" 140 to 143 °C

Identify measured melting point corresponding to "CCCOC(=O)c1cnc(S)n1C(c1ccccc1)c1ccccc1" 133 °C

Identify measured melting point corresponding to "NCCc1coc2ccc3c(c12)CCCO3" 110 °C

Identify measured melting point corresponding to "CC(C)NC(=O)Cc1cccc(N)c1" 93 to 95 °C

Identify measured melting point corresponding to "CCOc1cc(C=CC(=O)OC)ccc1OCc1coc(-c2ccccc2)n1" 125 to 126 °C

Identify measured melting point corresponding to "CCn1cc(C(=O)NCc2ccc(Cl)cc2)c(=O)c2cc(CCl)oc21" 192 to 193 °C

Identify measured melting point corresponding to "COc1ccc(C2=CC(N3CCN(Cc4ccccc4)CC3)=NC23C=CC(=O)C=C3)cc1" 190 °C

====

The entries below are paired with their reported melting point.
Your answer should be a plain number; it is taken to be in °C.

[[record]]
compound = "COCCn1ccc2ccc(NC(=O)/C=C/c3ccc(C(C)(C)C)cc3)cc21"
observedproperty = "melting point"
assayvalue = 133


Consider now this further compound.
Identify measured melting point corresponding to CNC(=S)N1CCCC(N2CCC(Nc3nc4ccccc4n3Cc3ccc(F)cc3)CC2)C1 (stereo not given) 219

====

The entries below are paired with their reported melting point.

[[record]]
compound = "CN(C)C(=O)CCSC(SCCC(=O)O)c1cccc(C=Cc2ccc3ccc(Cl)cc3n2)c1 (stereo not given)"
assayvalue = "153 to 155 °C"

[[record]]
compound = "COc1cc(CN2CCC(=O)C(C(c3ccccc3)c3ccccc3)C2)ccc1O (stereo not given)"
assayvalue = "131 to 132 °C"

[[record]]
compound = "O=C(CC12CC3CC(CC(C3)C1)C2)Nc1ccc2[nH]ncc2c1"
assayvalue = "265 °C"


Identify measured melting point corresponding to O=S(=O)(CC1(O)CN2CCC1CC2)c1ccc(-c2ccccc2)cc1 (stereo not given) 203 to 205 °C

Identify measured melting point corresponding to "CCC(=O)NC(=O)CCCCBr" 94 to 97 °C

====

observedProperty: melting point

[[record]]
molecule = "CC1(C)SCN(CCCCN2CCN(c3n[nH]c4ccccc34)CC2)C1=O"
assayvalue = "139 to 142 °C"

[[record]]
molecule = "COc1cc(C(=O)O)ccc1Cc1cn(C)c2ccc(C(=O)NCC3CCCC3)cc12"
assayvalue = "237 to 239 °C"

[[record]]
molecule = "COCCCN1CC(=O)c2cc(Cl)sc2S1(=O)=O"
assayvalue = "48 to 52 °C"

[[record]]
molecule = "CC(N1CCN(c2ncnn2Cc2ccc(C(C)(C)C)cc2)CC1)C(O)(Cn1cncn1)c1ccc(F)cc1F (stereo not given)"
assayvalue = "73 to 75 °C"


Consider now this further molecule.
Identify measured melting point corresponding to CC(C)(Cc1ccc(Cl)cc1)C(O)(Cn1ccnc1)c1ccc(Cl)cc1 (stereo not given) 174 °C

====

observedProperty: melting point

# count of solved cases: 10
[[record]]
compound = "CN1CCN(CC(=O)N2c3ccccc3C(=O)Nc3cccnc32)CC1"
assayvalue = "198 to 200 °C"

[[record]]
compound = "CN(C(CCn1c(=O)cc(Cl)[nH]c1=O)C(=O)NO)S(=O)(=O)c1ccc(Oc2ccncc2)cc1 (stereo not given)"
assayvalue = "163 to 165 °C"

[[record]]
compound = "O=C(NC12CC3CC(CC(C3)C1)C2)c1cc(O)c(O)cc1Cl"
assayvalue = "225 to 230 °C"

[[record]]
compound = "CC(C)N(C[C@H](O)[C@H](Cc1ccccc1)NC(=O)OCc1ccccc1)NC(=O)C(C)(C)C"
assayvalue = "132 to 134 °C"

[[record]]
compound = "CCC(=O)c1c(-c2ccncc2)[nH]c(-c2ccncc2)c1C"
assayvalue = "237 to 238 °C"

[[record]]
compound = "Oc1cccc(-c2n[nH]c3ncnc(Nc4cccc(Cl)c4)c23)c1"
assayvalue = "118 to 119 °C"

[[record]]
compound = "CN1CCC(=C2c3ccccc3C=Cc3ccc(I)cc32)CC1"
assayvalue = "166 to 170 °C"

[[record]]
compound = "COc1cccc(CC(=O)O)c1OCCCc1cn(-c2cccc(C(F)(F)F)n2)nc1C(C)C"
assayvalue = "95 to 97 °C"

[[record]]
compound = "COC(=O)C1=C(C)NC(C)=C(c2nc(-c3ccc(CN(C)Cc4ccccc4)cc3)no2)C1c1cccc([N+](=O)[O-])c1 (stereo not given)"
assayvalue = "192 to 193 °C"

[[record]]
compound = "N#CC(C#N)=C1C=C(c2ccccc2)S(=O)(=O)C(c2cccs2)=C1"
assayvalue = "214 to 232 °C"


Identify measured melting point corresponding to "Nc1cc(NC(=O)Nc2ccccc2)ccn1" > 290 °C

Identify measured melting point corresponding to CC(Cc1c[nH]c2ccccc12)NC(=O)Oc1ccccc1 (stereo not given) 89 to 92 °C

Identify measured melting point corresponding to "Oc1ccc2c(c1)C=C(n1ccnc1)CC2" 218 to 220 °C

Identify measured melting point corresponding to "Clc1ccc(-c2nc(-c3ccccc3)sc2CBr)cc1" 108 to 109 °C

Identify measured melting point corresponding to "Cc1cc(-c2cc3c(cc2F)c(=O)c(C(=O)O)cn3C2CC2)cc(CO)n1" 270 to 272 °C

Identify measured melting point corresponding to "CCOCCc1ccc(OCCNc2ncnc3oc(C)c(C)c23)c(C)c1" 92 to 93 °C

Identify measured melting point corresponding to "COc1cc(Nc2nc3ccnc(-c4ccc(S(N)(=O)=O)cc4)c3o2)cc(OC)c1OC" > 280 °C

Identify measured melting point corresponding to "CCc1oc2ccccc2c1C(C)(C)C(N)=NO" 118 to 120 °C

Identify measured melting point corresponding to "COc1cc(C)nc(CNC(=O)NS(=O)(=O)c2ccccc2S(=O)(=O)N(C)C)n1" 153 to 156 °C

Identify measured melting point corresponding to "CCOC1=C(C#N)C(c2ccccc2)=C2C(=O)N(CC)C(c3ccccc3)=C12" 200 to 202 °C

====

The entries below are paired with their reported melting point.

[[record]]
molecule = "COc1ccc(-c2c(Cl)ncn2-c2ccc(S(C)(=O)=O)cc2)c(F)c1"
assayvalue = "176 to 198 °C"

[[record]]
molecule = "COc1ccc(CNc2ncc(Cl)cc2C(=O)O)cc1"
assayvalue = "204 to 206 °C"

[[record]]
molecule = "CCCCc1nc2cccc(CO)c2n1Cc1ccc(-c2ccccc2C#N)cc1"
assayvalue = "203 to 204 °C"


Identify measured melting point corresponding to CCOc1ccc(CC2(C)CNCCN2Cc2ccccc2)cc1OCC (stereo not given) 94 to 96 °C

Identify measured melting point corresponding to "CNC(=O)c1cnc(SC)nc1Nc1ccc2[nH]ncc2c1" 259 to 261 °C

Identify measured melting point corresponding to "N#CCCNC(=O)c1cccc(-c2ccc(F)c3cc(Cc4cccc(C(F)(F)F)c4)oc23)c1" 158 to 159 °C

====

The entries below are paired with their reported melting point.

[[record]]
compound = "Cc1ccc(S(=O)(=O)OCP(=O)(OC(C)C)OC(C)C)cc1"
observedproperty = "melting point"
assayvalue = "37.5 °C"


Identify measured melting point corresponding to "O=C(O)CCc1cc2cc(Cl)ccc2n1S(=O)(=O)c1ccc(Oc2ccccc2)cc1" 70 to 75 °C

Identify measured melting point corresponding to CC1=C(C(=O)O)C(c2ccccc2Cl)C(c2nnco2)=C(C)N1 (stereo unspecified) 187 to 190 °C

Identify measured melting point corresponding to "CCOC(=O)c1cnc(Nc2cccc(OC)c2)[nH]c1=O" 233 to 234 °C

====

The entries below are paired with their reported melting point.

[[record]]
molecule = "CCCc1c(C(=O)C(C)C)c2ccc(C(=O)O)cc2n1Cc1ccc(Br)cc1F"
assayvalue = "210 to 211 °C"

[[record]]
molecule = "FC(F)(F)c1ccc(Oc2ccc3c(c2)OCC(c2ccccc2)O3)nc1 (stereo unspecified)"
assayvalue = "104 to 110 °C"

[[record]]
molecule = "CNC(=O)C1CN(C(=O)/C=C/C2=C(C)CCCC2(C)C)CCN1C(N)=O (stereo unspecified)"
assayvalue = "100 to 112 °C"

[[record]]
molecule = "CCNc1ccccc1S(=O)(=O)C[N+](=O)[O-]"
assayvalue = "82 °C"


Identify measured melting point corresponding to "CCCN1CCN(Cc2nc(-c3ccc4c(c3)Nc3ccccc3S4)cs2)CC1" 189 to 190 °C

Identify measured melting point corresponding to "CCOC(=O)C(C)(C)OC(=O)c1cc(-n2c(=O)cc(C(F)(F)F)[nH]c2=O)ccc1Cl" 176 to 177 °C

Identify measured melting point corresponding to "CCc1noc(-c2cn(-c3ncc(Cl)cc3Cl)cn2)n1" 132 to 133 °C

Identify measured melting point corresponding to "NC(=O)c1ncn2c(-c3ccc(N4CCOCC4)cc3)ccnc12" 274 to 277 °C

Identify measured melting point corresponding to "CC(C)Cn1c(CO)nc2c(N)nc3c(c21)CCCC3" 226 °C

Identify measured melting point corresponding to "COc1cccc(Sc2c3c(=O)n(C)c(=O)n(CC(C)C)c3cn2Cc2cccc3ccccc23)c1" 130 to 133 °C

Identify measured melting point corresponding to "O=S(=O)(NCCc1ccc(CCl)cc1)c1ccc(Cl)cc1" 96 to 98 °C

Identify measured melting point corresponding to "CC1(C)C(=O)Nc2ccc(C3=NNC(=O)CC3)cc21" > 300 °C
